Hey, just so you know, these numbers are from ChEMBL document CHEMBL5608183.

biological target: Kappa-type opioid receptor (Homo sapiens, UniProt P41145); assay: Agonist activity at human kappa opioid receptor tranfected in U2OS cells co-transfected with arrestin2-EFC assessed as induction of beta arrestin2 recruitment incubated for 90 mins by Synergy HT luminometer; format: functional, cell-based
Sequence (P41145 whole entry): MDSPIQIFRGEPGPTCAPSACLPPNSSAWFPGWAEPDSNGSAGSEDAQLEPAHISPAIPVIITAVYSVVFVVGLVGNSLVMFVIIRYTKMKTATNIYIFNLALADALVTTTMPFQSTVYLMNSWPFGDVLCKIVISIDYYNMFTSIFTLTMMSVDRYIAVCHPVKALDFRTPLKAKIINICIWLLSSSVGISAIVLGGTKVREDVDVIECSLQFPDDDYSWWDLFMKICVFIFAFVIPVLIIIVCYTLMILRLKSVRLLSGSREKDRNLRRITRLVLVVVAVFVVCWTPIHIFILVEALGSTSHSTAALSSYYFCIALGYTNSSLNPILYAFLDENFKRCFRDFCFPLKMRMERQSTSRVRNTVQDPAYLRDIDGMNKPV
Readout name: EC50 (nM)
Numeric only. Scale: nM

# example entries with known answers
Cc1ccc(CCc2nnc(-c3ncccn3)n2Cc2cccs2)cc1C(F)(F)F : 2220
Brc1cccc(CCc2nnc(-c3ccccn3)n2Cc2cccs2)c1 : 5610
Cc1ccc(CCc2nnc(-c3ccccn3)n2Cc2ccco2)cc1C(F)(F)F : 803
c1ccc(-c2nnc(CCc3ccc4ccccc4c3)n2Cc2cccs2)nc1 : 896

Now look at this entry.
Can you look up the measured EC50 of Cc1ccc(/C=C/c2nnc(-c3nccn3C)n2Cc2nccs2)cc1C(F)(F)F for me?
2190
